biological target: dipeptidyl peptidase IV from porcine kidney (Sus scrofa, UniProt P22411)
Sequence (P22411 whole entry): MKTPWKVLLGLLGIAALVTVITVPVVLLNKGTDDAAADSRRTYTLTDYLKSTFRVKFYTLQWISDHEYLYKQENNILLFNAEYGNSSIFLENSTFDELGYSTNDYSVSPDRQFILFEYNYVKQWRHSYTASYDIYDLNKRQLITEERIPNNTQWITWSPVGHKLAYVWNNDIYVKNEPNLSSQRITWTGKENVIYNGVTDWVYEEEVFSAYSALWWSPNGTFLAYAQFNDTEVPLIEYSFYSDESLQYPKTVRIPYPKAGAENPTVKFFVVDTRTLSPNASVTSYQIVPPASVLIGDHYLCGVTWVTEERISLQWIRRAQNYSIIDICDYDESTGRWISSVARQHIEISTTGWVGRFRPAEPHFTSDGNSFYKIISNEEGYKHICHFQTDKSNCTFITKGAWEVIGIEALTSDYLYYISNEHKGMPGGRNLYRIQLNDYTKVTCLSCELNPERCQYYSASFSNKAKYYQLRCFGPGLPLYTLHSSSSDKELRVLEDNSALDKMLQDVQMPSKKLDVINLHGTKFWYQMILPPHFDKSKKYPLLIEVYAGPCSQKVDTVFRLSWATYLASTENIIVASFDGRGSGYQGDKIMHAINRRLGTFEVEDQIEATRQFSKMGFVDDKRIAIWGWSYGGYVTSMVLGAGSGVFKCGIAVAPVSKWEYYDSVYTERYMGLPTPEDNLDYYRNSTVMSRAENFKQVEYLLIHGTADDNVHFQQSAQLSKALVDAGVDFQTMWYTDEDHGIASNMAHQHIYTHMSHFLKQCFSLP
endpoint-label: pKi
Please treat pKi as minus the base-10 logarithm of the molar concentration.

### Prompt Looking for the measured pKi of NC(=O)CC[C@H](N)C(=O)N1CCSC1 , can you help?
### Response 6.51

====

target: porcine DP II (Sus scrofa, UniProt A0A5G2QK18)
Sequence (A0A5G2QK18 28-502): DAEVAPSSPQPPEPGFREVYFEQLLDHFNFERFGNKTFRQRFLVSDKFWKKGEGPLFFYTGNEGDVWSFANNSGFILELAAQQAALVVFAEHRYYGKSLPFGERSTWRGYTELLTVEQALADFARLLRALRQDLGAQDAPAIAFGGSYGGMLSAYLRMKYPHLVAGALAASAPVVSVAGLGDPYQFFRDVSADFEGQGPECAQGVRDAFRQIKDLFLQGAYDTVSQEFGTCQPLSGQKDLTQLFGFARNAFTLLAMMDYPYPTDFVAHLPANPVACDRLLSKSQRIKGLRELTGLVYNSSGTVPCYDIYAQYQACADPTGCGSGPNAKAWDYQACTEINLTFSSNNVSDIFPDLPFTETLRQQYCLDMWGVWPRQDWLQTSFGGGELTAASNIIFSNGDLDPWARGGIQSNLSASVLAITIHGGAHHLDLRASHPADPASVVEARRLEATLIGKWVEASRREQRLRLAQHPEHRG
endpoint-label: Ki (µM)
Field: numeric (µM). Do not append units.

### Prompt Looking for the measured Ki of NC(=O)CC[C@H](N)C(=O)N1CCSC1 [glutaminyl thiazolidine] , can you help?
### Response 10.7

====

biological target: Prolidase from porcine kidney (Sus scrofa, UniProt A0A5G2QQV1)
Sequence (A0A5G2QQV1 1-463): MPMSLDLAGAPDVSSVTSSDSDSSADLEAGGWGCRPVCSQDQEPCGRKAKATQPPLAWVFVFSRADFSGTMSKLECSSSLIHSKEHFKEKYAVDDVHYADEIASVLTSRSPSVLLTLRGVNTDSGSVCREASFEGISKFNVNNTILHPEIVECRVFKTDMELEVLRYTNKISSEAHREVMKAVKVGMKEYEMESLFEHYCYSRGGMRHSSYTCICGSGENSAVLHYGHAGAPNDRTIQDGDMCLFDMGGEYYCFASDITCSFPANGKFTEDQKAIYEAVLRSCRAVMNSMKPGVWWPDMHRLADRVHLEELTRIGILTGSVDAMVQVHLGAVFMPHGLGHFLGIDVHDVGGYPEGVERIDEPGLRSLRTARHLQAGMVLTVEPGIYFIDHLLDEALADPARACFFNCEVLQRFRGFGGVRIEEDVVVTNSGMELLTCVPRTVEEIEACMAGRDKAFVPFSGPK
pIC50: −log10 of the molar value.
endpoint-label: pIC50

### Prompt Looking for the measured pIC50 of NC(=O)CC[C@H](N)C(=O)N1CCSC1 , can you help?
### Response < 2.52

====

molecular target: DPIV (N-terminal Xaa-Pro releasing activity) in human plasma (Homo sapiens); construct: Human plasma contains N-terminal Xaa-Pro releasing activity; from tissue; host or cells: human plasma; assay: Ki-determination in human plasma; format: biochemical; conditions: after 5 min pre-incubation
Sequence (P27487 39-766 limits assumed): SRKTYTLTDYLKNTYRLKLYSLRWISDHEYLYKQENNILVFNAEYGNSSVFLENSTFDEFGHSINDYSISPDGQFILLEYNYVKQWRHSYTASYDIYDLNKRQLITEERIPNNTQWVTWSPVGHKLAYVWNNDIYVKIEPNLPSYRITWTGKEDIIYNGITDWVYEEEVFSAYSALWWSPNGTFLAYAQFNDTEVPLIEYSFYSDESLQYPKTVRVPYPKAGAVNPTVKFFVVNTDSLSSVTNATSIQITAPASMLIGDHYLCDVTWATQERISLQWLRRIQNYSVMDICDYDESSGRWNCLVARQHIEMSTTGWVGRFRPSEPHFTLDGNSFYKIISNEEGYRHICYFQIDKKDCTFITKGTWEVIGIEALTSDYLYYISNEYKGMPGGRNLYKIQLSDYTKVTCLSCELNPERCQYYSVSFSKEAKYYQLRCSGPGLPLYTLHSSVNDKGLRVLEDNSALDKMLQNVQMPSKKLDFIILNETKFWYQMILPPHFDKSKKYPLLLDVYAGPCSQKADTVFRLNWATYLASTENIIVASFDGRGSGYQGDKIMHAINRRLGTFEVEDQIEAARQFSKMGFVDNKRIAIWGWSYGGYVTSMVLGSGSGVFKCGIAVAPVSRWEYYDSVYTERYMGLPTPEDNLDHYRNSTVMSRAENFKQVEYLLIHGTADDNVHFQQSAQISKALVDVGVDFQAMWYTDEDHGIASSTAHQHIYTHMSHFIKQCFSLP
# reported pKi; entries follow
Please treat pKi as minus the base-10 logarithm of the molar concentration.

NC(=O)CC[C@H](N)C(=O)N1CCCC1 :: 5.89

### Prompt Looking for the measured pKi of NC(=O)CC[C@H](N)C(=O)N1CCSC1 , can you help?
### Response 6.39
